target: human calcium-sensing receptor (CaSR) (Homo sapiens, UniProt P41180); assay: intracellular Ca assay, CaSR antagonist activity in HEK293/hCaSR cells; conditions: Fura2-AM, inhibition of response to calcium chloride ligand solution, read-out: IC50 values according to the intracellular Ca assay (CaSR antagonist activity)
Sequence (P41180 20-1078): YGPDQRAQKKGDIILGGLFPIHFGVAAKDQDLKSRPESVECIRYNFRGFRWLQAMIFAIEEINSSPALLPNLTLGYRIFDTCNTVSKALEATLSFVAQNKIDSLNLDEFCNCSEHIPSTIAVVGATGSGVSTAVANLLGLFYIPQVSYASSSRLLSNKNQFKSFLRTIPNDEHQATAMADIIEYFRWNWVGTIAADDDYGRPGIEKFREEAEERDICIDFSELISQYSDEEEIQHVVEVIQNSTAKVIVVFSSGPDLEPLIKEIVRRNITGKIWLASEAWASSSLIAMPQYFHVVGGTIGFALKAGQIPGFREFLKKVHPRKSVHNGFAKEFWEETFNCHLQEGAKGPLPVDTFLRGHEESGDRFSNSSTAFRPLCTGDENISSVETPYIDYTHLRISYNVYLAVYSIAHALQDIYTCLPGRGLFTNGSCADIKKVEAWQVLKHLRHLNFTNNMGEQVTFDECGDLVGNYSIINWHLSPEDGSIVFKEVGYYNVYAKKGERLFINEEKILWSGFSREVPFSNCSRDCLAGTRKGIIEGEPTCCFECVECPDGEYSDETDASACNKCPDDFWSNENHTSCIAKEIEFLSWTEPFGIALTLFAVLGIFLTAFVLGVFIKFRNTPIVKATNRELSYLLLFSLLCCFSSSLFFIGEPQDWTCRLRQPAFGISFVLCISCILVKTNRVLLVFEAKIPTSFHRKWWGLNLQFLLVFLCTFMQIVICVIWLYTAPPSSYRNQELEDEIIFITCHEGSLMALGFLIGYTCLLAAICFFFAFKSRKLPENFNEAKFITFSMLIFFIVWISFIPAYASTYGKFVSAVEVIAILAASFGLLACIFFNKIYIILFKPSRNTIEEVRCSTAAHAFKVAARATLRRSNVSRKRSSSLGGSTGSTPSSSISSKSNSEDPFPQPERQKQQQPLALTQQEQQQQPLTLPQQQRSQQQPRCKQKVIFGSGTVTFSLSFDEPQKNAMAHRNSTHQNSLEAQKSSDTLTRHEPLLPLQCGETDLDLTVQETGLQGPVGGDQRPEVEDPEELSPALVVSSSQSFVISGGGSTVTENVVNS
pIC50: −log10 of the molar value.
readoutKind: pIC50

Ask | Request body: readout pIC50, system human calcium-sensing receptor (CaSR) (Homo sapiens, UniProt P41180), query CN(C[C@H](O)CNC(C)(C)CC1Cc2ccccc2C1)S(=O)(=O)c1cccc(-c2ccc(CCC(=O)O)cc2)c1 . Return the value.
Reply | 6.00 to 6.52

Ask | Request body: readout pIC50, system human calcium-sensing receptor (CaSR) (Homo sapiens, UniProt P41180), query CN(C[C@H](O)CNC(C)(C)Cc1ccc2ccccc2c1)S(=O)(=O)c1cccc(-c2ccc(C(=O)NCCC(=O)O)cc2)c1 . Return the value.
Reply | 6.00 to 6.52

Ask | Request body: readout pIC50, system human calcium-sensing receptor (CaSR) (Homo sapiens, UniProt P41180), query CCc1cc(-c2ccc(CCC(=O)O)cc2)ccc1S(=O)(=O)N(C)C[C@H](O)CNC(C)(C)CCCc1ccccc1 . Return the value.
Reply | ≥ 6.52

Ask | Request body: readout pIC50, system human calcium-sensing receptor (CaSR) (Homo sapiens, UniProt P41180), query CN(C[C@H](O)CNC(C)(C)Cc1ccc2ccccc2c1)S(=O)(=O)c1ccc(-c2ccc(C(=O)O)c(N)c2)cc1 . Return the value.
Reply | 5.52 to 6.00

Ask | Request body: readout pIC50, system human calcium-sensing receptor (CaSR) (Homo sapiens, UniProt P41180), query CN(C[C@H](O)CNC(C)(C)Cc1ccc(Cl)c(F)c1)S(=O)(=O)c1cccc(-c2ccc(CCC(=O)O)cc2)c1 . Return the value.
Reply | 5.52 to 6.00

Ask | Request body: readout pIC50, system human calcium-sensing receptor (CaSR) (Homo sapiens, UniProt P41180), query CN(C[C@H](O)CNC(C)(C)CC1Cc2ccccc2C1)S(=O)(=O)c1ccc(CCCCCC(=O)O)c(C(F)(F)F)c1 . Return the value.
Reply | ≥ 6.52

Ask | Request body: readout pIC50, system human calcium-sensing receptor (CaSR) (Homo sapiens, UniProt P41180), query Cc1ccc(CC(C)(C)NC[C@@H](O)CN(C)S(=O)(=O)c2cccc(-c3ccc(C(=O)O)cc3F)c2)cc1F . Return the value.
Reply | 6.00 to 6.52

* * *

biological target: human calcium-sensing receptor (CaSR) (Homo sapiens, UniProt P41180); assay: intracellular Ca assay, CaSR antagonist activity in HEK293/hCaSR cells; conditions: Fura2-AM, inhibition of response to calcium chloride ligand solution, read-out: IC50 values according to the intracellular Ca assay (CaSR antagonist activity)
Some compounds, each annotated with its measured IC50.

[[record]]
compound = "CN(C[C@H](O)CNC(C)(C)CC1Cc2ccccc2C1)S(=O)(=O)c1ccc(-c2ccc(C(=O)O)nc2)c(C(F)(F)F)c1"
testedsystem = "human calcium-sensing receptor (CaSR) (Homo sapiens, UniProt P41180)"
readoutkind = "IC50"
recordedresult = "≤ 300 nM"

[[record]]
compound = "Cc1cc(-c2cc(C(F)(F)F)cc(S(=O)(=O)N(C)C[C@H](O)CNC(C)(C)CC3Cc4ccccc4C3)c2)ccc1C(=O)O"
testedsystem = "human calcium-sensing receptor (CaSR) (Homo sapiens, UniProt P41180)"
readoutkind = "IC50"
recordedresult = "≤ 300 nM"

[[record]]
compound = "CN(C[C@H](O)CNC(C)(C)Cc1ccc2ccccc2c1)S(=O)(=O)c1cccc(-c2ccc(C(=O)O)c(Cl)c2)c1"
testedsystem = "human calcium-sensing receptor (CaSR) (Homo sapiens, UniProt P41180)"
readoutkind = "IC50"
recordedresult = "300 to 1000 nM"

[[record]]
compound = "CN(C[C@H](O)CNC(C)(C)CC1Cc2ccccc2C1)S(=O)(=O)c1ccc(-c2ccc(CCC(=O)O)c(F)c2)c(Cl)c1"
testedsystem = "human calcium-sensing receptor (CaSR) (Homo sapiens, UniProt P41180)"
readoutkind = "IC50"
recordedresult = "≤ 300 nM"

[[record]]
compound = "CN(C[C@H](O)CNC(C)(C)CCCc1ccccc1)S(=O)(=O)c1cc(F)cc(CCC(=O)O)c1Cl"
testedsystem = "human calcium-sensing receptor (CaSR) (Homo sapiens, UniProt P41180)"
readoutkind = "IC50"
recordedresult = "≤ 300 nM"


Ask | IC50 lookup needed for COc1ccc(-c2cc(S(=O)(=O)N(C)C[C@H](O)CNC(C)(C)CC3Cc4ccccc4C3)sc2Cl)cc1CCC(=O)O , thanks.
Reply | ≤ 300 nM

Ask | IC50 lookup needed for CN(C[C@H](O)CNC(C)(C)Cc1ccc2ccccc2c1)S(=O)(=O)c1ccc(-c2ccc(C(=O)O)c(O)c2)cc1 , thanks.
Reply | 300 to 1000 nM

Ask | IC50 lookup needed for CCc1cc(-c2ccc(CCC(=O)O)c(F)c2)ccc1S(=O)(=O)N(C)C[C@H](O)CNC(C)(C)CC1Cc2ccccc2C1 , thanks.
Reply | ≤ 300 nM

Ask | IC50 lookup needed for Cc1ccc(-c2ccc(S(=O)(=O)N(C)C[C@H](O)CNC(C)(C)Cc3ccc4ccccc4c3)cc2)cc1C(=O)O , thanks.
Reply | 1000 to 3000 nM

Ask | IC50 lookup needed for CN(C[C@H](O)CNC(C)(C)CC1Cc2ccccc2C1)S(=O)(=O)c1ccc(-c2cccc(C(=O)O)c2)cc1C(F)(F)F , thanks.
Reply | ≤ 300 nM

Ask | IC50 lookup needed for CN(C[C@H](O)CNC(C)(C)Cc1ccc2ccccc2c1)S(=O)(=O)Cc1ccccc1-c1cc(F)cc(C(=O)O)c1 , thanks.
Reply | 1000 to 3000 nM

Ask | IC50 lookup needed for CN(C[C@H](O)CNC(C)(C)CC1Cc2ccccc2C1)S(=O)(=O)c1cccc(-c2cc(F)cc(C(=O)O)c2)c1 , thanks.
Reply | ≤ 300 nM

Ask | IC50 lookup needed for CN(C[C@H](O)CNC(C)(C)CCCc1ccccc1)S(=O)(=O)c1ccc(-c2cccc(CCC(=O)O)c2)c(Cl)c1 , thanks.
Reply | ≤ 300 nM

* * *

biological target: human calcium-sensing receptor (CaSR) (Homo sapiens, UniProt P41180); construct: expressed in transfected cells; assay: intracellular Ca assay, CaSR antagonist activity in HEK293/hCaSR cells; format: cell-based; settings: Fura2-AM, inhibition of response to calcium chloride ligand solution, read-out: IC50 values according to the intracellular Ca assay (CaSR antagonist activity)
readoutKind: IC50

[[record]]
compound = "CN(C[C@H](O)CNC(C)(C)CCCc1ccccc1)S(=O)(=O)c1cc(-c2ccc(CCC(=O)O)cc2)cc(C(F)(F)F)c1"
recordedresult = "≤ 0.3 µM"

[[record]]
compound = "CCc1cc(-c2ccc(CCC(=O)O)cc2)ccc1S(=O)(=O)N(C)C[C@H](O)CNC(C)(C)CCCc1ccccc1F"
recordedresult = "≤ 0.3 µM"

[[record]]
compound = "Cc1c(C(=O)O)cccc1-c1cccc(S(=O)(=O)N(C)C[C@H](O)CNC(C)(C)CC2Cc3ccccc3C2)c1"
recordedresult = "≤ 0.3 µM"


Ask | IC50 lookup needed for CN(C[C@H](O)CNC(C)(C)Cc1ccc2ccccc2c1)S(=O)(=O)Cc1ccccc1-c1cccc(C=CC(=O)O)c1 , thanks.
Reply | 1 to 3 µM

* * *

Some molecules, each annotated with its measured IC50.
target: human calcium-sensing receptor (CaSR) (Homo sapiens); assay: intracellular Ca assay, CaSR antagonist activity in HEK293/hCaSR cells; settings: Fura2-AM, inhibition of response to calcium chloride ligand solution, read-out: IC50 values according to the intracellular Ca assay (CaSR antagonist activity)

See these solved cases before continuing.
[[record]]
compound = "CN(C[C@H](O)CNC(C)(C)CCCc1ccccc1)S(=O)(=O)c1cc(-c2cccc(CCC(=O)O)c2)cc(C(F)(F)F)c1"
recordedresult = "≤ 300 nM"

[[record]]
compound = "CN(C[C@H](O)CNC(C)(C)Cc1ccc2ccccc2c1)S(=O)(=O)c1cccc(-c2cccc(C=CC(=O)O)c2)c1"
recordedresult = "1000 to 3000 nM"

[[record]]
compound = "CCc1cc(-c2ccc(CC(=O)O)cc2)ccc1S(=O)(=O)N(C)C[C@H](O)CNC(C)(C)CC1Cc2ccccc2C1"
recordedresult = "≤ 300 nM"

[[record]]
compound = "CN(C[C@H](O)CNC(C)(C)Cc1ccc2ccccc2c1)S(=O)(=O)c1cccc(-c2ccc(CCC(=O)O)cc2)c1"
recordedresult = "300 to 1000 nM"

[[record]]
compound = "CN(C[C@H](O)CNC(C)(C)Cc1ccc2ccccc2c1)S(=O)(=O)c1cccc(-c2ccc(C(=O)O)c(O)c2)c1"
recordedresult = "300 to 1000 nM"

[[record]]
compound = "CN(C[C@H](O)CNC(C)(C)Cc1ccc2ccccc2c1)S(=O)(=O)c1ccc(-c2ccc(C(=O)O)cc2F)cc1"
recordedresult = "300 to 1000 nM"

[[record]]
compound = "CCc1cc(-c2cc(CCC(=O)O)ccc2F)ccc1S(=O)(=O)N(C)C[C@H](O)CNC(C)(C)CC1Cc2ccccc2C1"
recordedresult = "≤ 300 nM"

[[record]]
compound = "CN(C[C@H](O)CNC(C)(C)Cc1ccc2ccccc2c1)S(=O)(=O)c1cccc(-c2ccc(C(=O)O)c(F)c2)c1"
recordedresult = "300 to 1000 nM"


Ask | IC50 lookup needed for CN(C[C@H](O)CNC(C)(C)CC1Cc2ccccc2C1)S(=O)(=O)c1cccc(-c2ccc(C(=O)O)cc2)c1 , thanks.
Reply | ≤ 300 nM

Ask | IC50 lookup needed for CN(C[C@H](O)CNC(C)(C)CC1Cc2ccccc2C1)S(=O)(=O)c1cc(-c2ccc(CCC(=O)O)s2)cc(C(F)(F)F)c1 , thanks.
Reply | ≤ 300 nM

Ask | IC50 lookup needed for CN(C[C@H](O)CNC(C)(C)CC1Cc2ccccc2C1)S(=O)(=O)c1cccc(-c2cccc(C(=O)O)c2)c1 , thanks.
Reply | ≤ 300 nM

Ask | IC50 lookup needed for CCc1cc(-c2ccc(OC)c(CCC(=O)O)c2)ccc1S(=O)(=O)N(C)C[C@H](O)CNC(C)(C)CCCc1ccccc1 , thanks.
Reply | ≤ 300 nM

Ask | IC50 lookup needed for CCc1cc(-c2ccc(CCC(=O)O)cc2)ccc1S(=O)(=O)N(C)C[C@H](O)CNC(C)(C)CCCc1cccs1 , thanks.
Reply | ≤ 300 nM

Ask | IC50 lookup needed for CN(C[C@H](O)CNC(C)(C)CC1Cc2ccccc2C1)S(=O)(=O)c1cccc(-c2ccc(C(=O)O)cc2F)c1 , thanks.
Reply | ≤ 300 nM
